# credit: paper PMC10397247

Target: T1, APC2237-AA
T1 chain: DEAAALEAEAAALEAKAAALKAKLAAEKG
Test: two-hybrid library CCmax;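 also: natural log of median RNA to DNA barcode read ratio; higher means stronger binding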
Details: mean of both orientations
testReadout: interaction score
Reply: number alone, nothing else.

Worked cases, answers included:
binder	number
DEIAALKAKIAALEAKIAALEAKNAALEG [4H807-AA]	-1.21
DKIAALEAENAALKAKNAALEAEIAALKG [4H2290-AA]	-1.58
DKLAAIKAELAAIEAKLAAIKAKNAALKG [APC1015-AA]	-0.0287

// sample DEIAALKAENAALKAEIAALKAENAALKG [4H716-AA] , its interaction score was -1.74
